Source: PubChem BioAssay AID540333

Assay: antivirals protecting cells from dengue CPE – CPE readout, HTS (AID 540333)
Details: Dengue virus CPE inhibition in host cells, at 20 µM; stronger effect = higher value
Out of some 10,000 compounds screened, about 320 (3.2%) were called active. Only a selection was taken, and actives are over-represented in it overall.
experimental-readout: CPE inhibition

Sample records with CPE inhibition:
Cc1ccc(NC2=C(Cl)C(=O)OC2OC(=O)c2ccco2)cc1C (configuration not stated); 14% (active)
CCN1C(=O)[C@@H]2[C@@H](c3ccc(SC4CCCCC4)cc3)N3CCC[C@@]3(C(=O)OC)[C@@H]2C1=O; 0.855% (inactive)
S=C(NCCCNC(=S)Nc1ccccc1)Nc1ccccc1; inactive
COC(=O)C(Oc1ccc2c(-c3ccc(OC)cc3)cc(=O)oc2c1)c1ccccc1 (configuration not stated); 0.765% (inactive)
Cn1nccc1C(=O)Nc1ccn(C23CC4CC(CC(C4)C2)C3)n1; 1.19% (inactive)

Query string: Entry Cc1ccc(NC(=O)c2cnccn2)cc1S(=O)(=O)N(C)C has what CPE inhibition?
Result string: 1.06% (inactive)

Query string: Entry CC(C)(C)OC(=O)NCC(=O)Oc1cc2oc(=O)cc(-c3ccccc3)c2cc1Cl has what CPE inhibition?
Result string: 24.3% (active)

Query string: Entry Oc1c(C=C2N=c3ccccc3=N2)sc(=S)n1C1CCCC1 has what CPE inhibition?
Result string: 0.885% (inactive)

Query string: Entry O=C(O)CCCCCn1c(O)c(C=C2N=c3ccccc3=N2)sc1=S has what CPE inhibition?
Result string: 11.8% (active)

* * *

Test: antivirals protecting cells from dengue CPE – CPE readout, HTS (AID 540333)
Details: Dengue virus CPE inhibition in host cells, at 20 µM
In all, about 10,000 compounds went through this assay and about 320 (3.2%) were called active. Rule as the data show it: active = CPE inhibition mostly above about 9.1% (no sharp cut-off); inactive = mostly below about 7.2%. Only a selection was taken, and actives are over-represented in it overall.
Outcome (select one): active, inactive

Consider the following illustrative entries.
COc1cccc(/C=C(/C#N)c2ccc(F)cc2)c1OCc1cccc(C(=O)O)c1; inactive
CCCCn1c(N)c(NCCC)c(=O)[nH]c1=O; inactive
COc1ccccc1NC(c1cccnc1)c1ccc2cccnc2c1O (stereo unspecified); inactive
O=C1[C@@H]2[C@@H]3C[C@@H]([C@H]4ON=C(c5ccc(Cl)cc5Cl)[C@@H]34)[C@@H]2C(=O)N1C1CCCCC1; active
Cc1cccc(NC(=S)N2CCCCCC2)c1; inactive

Query string: What did this assay record as the result for CC1CCCC(NC(=S)NC(=O)c2ccccc2Br)C1C (stereo unspecified) ?
Result string: active

Query string: What did this assay record as the result for COCCn1c(=NC(=O)c2nc3ccccc3s2)sc2cc(S(C)(=O)=O)ccc21 ?
Result string: inactive

Query string: What did this assay record as the result for CCOC(=O)C(=CNc1cc(C)ccn1)C(=O)OCC ?
Result string: inactive

Query string: What did this assay record as the result for Cc1ccc(-c2cc3nc(-c4ccc(Br)cc4)cc(N)n3n2)cc1 ?
Result string: inactive

Query string: What did this assay record as the result for Cc1ccc(OCCSCc2nnc(NC(=O)Nc3cccc(Cl)c3)s2)cc1 ?
Result string: inactive

Query string: What did this assay record as the result for O=C(CSc1cccc[n+]1[O-])Nc1cc(S(=O)(=O)N2CCOCC2)ccc1Cl ?
Result string: inactive

* * *

Experiment: antivirals protecting cells from dengue CPE – CPE readout, HTS (AID 540333)
Conditions: Dengue virus CPE inhibition in host cells, at 20 µM
Screen size: about 10,000 compounds; about 320 (3.2%) were called active. No stated cut-off is given here; in the data, active means CPE inhibition mostly above about 9.1% (no sharp cut-off); inactive means mostly below about 7.2%. The sample holds actives, similar compounds and a random draw of the others, so the mix is not that of the screen.
Outcome (select one): active, inactive

Consider the following illustrative entries.
CCOc1ccc(C(=O)Nc2cccc(-c3nc4ccccc4[nH]3)c2C)cc1[N+](=O)[O-]; inactive
COc1ccc(C(=O)NCc2nnc(SCC(=O)N3CCc4ccccc43)n2Cc2ccccc2)cc1; inactive
Cc1c(N=C2NC(=O)/C(=C/c3ccc(O)cc3)S2)c(=O)n(-c2ccccc2)n1C; inactive
CCCSc1nnc(CNC(=O)C23CC4CC(CC(C4)C2)C3)n1Cc1ccccc1; inactive
O=C(CNC(=O)C12CC3CC(CC(C3)C1)C2)N1CCN(S(=O)(=O)/C=C/c2ccccc2)CC1; inactive
CC(C)Sc1nnc(CNC(=O)C23CC4CC(CC(C4)C2)C3)n1Cc1ccccc1; active
CC1(C)C(C=C(Cl)Cl)C1C(=O)N(Cc1cccc(Cl)c1)C1CCS(=O)(=O)C1 (stereo not drawn); inactive

Now look at this one.
Query string: What did this assay record as the result for COC(C(=O)Nc1ccc(S(=O)(=O)Nc2cccc3ccccc23)cc1)c1ccccc1 (stereo not drawn) ?
Result string: inactive

* * *

Assay: antivirals protecting cells from dengue CPE – CPE readout, HTS (AID 540333)
Conditions: Dengue virus CPE inhibition in host cells, at 20 µM
Out of some 10,000 compounds screened, about 320 (3.2%) were called active. Cut-off read from the data, not from the text of the source: active = CPE inhibition mostly above about 9.1% (no sharp cut-off); inactive = mostly below about 7.2%. Shown is part of a subset that was picked to be rich in actives.
Outcome (select one): active, inactive

Consider the following illustrative entries.
CC(CCc1ccccc1)N1CCN(Cc2ccccc2)CC1 (stereo not drawn); inactive
Cc1ccc(-n2nnnc2SC(C(=O)c2c[nH]c3ccccc23)c2ccccc2)cc1 (stereo not drawn); inactive
O=C(Nc1cccc2nsnc12)c1cccnc1Cl; inactive
COCc1nnc(NC(=O)c2cc(OC)c(OC)cc2[N+](=O)[O-])s1; inactive
Cc1ccc(-c2nn(-c3ccccc3)cc2C(=O)OCC(=O)Nc2ncc(Cl)cc2Cl)cc1; inactive
Cc1cc(C)c(S(=O)(=O)Nc2ccccc2-c2ccccc2)c(C)c1; active
Cc1ccc(C)c(S(=O)(=O)Nc2nc(C)c(C(=O)Nc3ccccc3)s2)c1; inactive

Now look at this one.
Query string: What did this assay record as the result for Cc1cccc(-n2c(SCC(=O)Nc3ncc(Cl)cc3Cl)nc3ccccc32)c1 ?
Result string: active

* * *

Experiment: antivirals protecting cells from dengue CPE – CPE readout, HTS (AID 540333)
Conditions: Dengue virus CPE inhibition in host cells, at 20 µM
The campaign covered roughly 10,000 compounds. About 320 (3.2%) were called active. Rule as the data show it: active = CPE inhibition mostly above about 9.1% (no sharp cut-off); inactive = mostly below about 7.2%. The sample holds actives, similar compounds and a random draw of the others, so the mix is not that of the screen.
Outcome (select one): active, inactive

Consider the following illustrative entries.
CC1=C(C(=O)Nc2ccc(F)c(F)c2)C(c2cccs2)NC(=S)N1 (stereo not given); inactive
O=C(CN1C2=NCCCN2c2ccccc21)c1cccc(Br)c1; inactive
O=C(CCSCCc1ccccn1)Nc1c(F)c(F)c(F)c(F)c1F; inactive
COc1ccc(CNC(=O)COC(=O)C2CCC(C(C)(C)C)CC2)cc1 (stereo not given); active

Now look at this one.
Query string: What did this assay record as the result for O=C(c1cc(-c2ccccc2)nn1CC1CC(c2cccnc2)=NO1)N1CCOCC1 (stereo not given) ?
Result string: inactive

* * *

Assay: antivirals protecting cells from dengue CPE – CPE readout, HTS (AID 540333)
Conditions: Dengue virus CPE inhibition in host cells, at 20 µM; stronger effect = higher value
The campaign covered roughly 10,000 compounds. About 320 (3.2%) were called active. Only a selection was taken, and actives are over-represented in it overall.
experimental-readout: CPE inhibition

CCOC(=O)c1cc(-c2ccccc2)sc1NC(=O)C(C)Sc1nnc(N)s1 (centres undefined); 19% (active)
CCOC(=O)C1=C(Nc2ccccc2)CC(C)(O)C(C(=O)OCC)C1c1ccccc1 (centres undefined); 0.14% (inactive)
O=C(Cc1ccc(Cl)cc1)Nc1cccc(S(=O)(=O)Nc2ccccc2F)c1; 0.29% (inactive)
O=C(/C=C/c1ccc(Cl)cc1Cl)NCCSCc1ccccc1; 0.45% (inactive)
CC(=O)c1c(C)[nH]c(C(=O)Nc2nc(-c3ccc(-c4ccccc4)cc3)cs2)c1C; 4.52% (inactive)
O=S(=O)(NC1CCCCC1Oc1ccccc1)c1ccccc1 (centres undefined); 3.28% (inactive)
O=C(NNc1nc(-c2ccc(Cl)cc2)cs1)c1ccco1; inactive
Cc1cc(C)c2c(c1)cc(C)c1nnc(SCC(=O)Nc3ccccc3N3CCOCC3)n12; inactive

Query string: Entry O=C(O)CCC(=O)OCc1c(-c2ccccc2)ncc2ccccc12 has what CPE inhibition?
Result string: 1.18% (inactive)

Query string: Entry CCOC(=O)C1=C(Nc2ccccc2)CC(C)(O)C(C(=O)OCC)C1c1ccc(Cl)cc1 (centres undefined) has what CPE inhibition?
Result string: 26.4% (active)

Query string: Entry Cc1nn(CCC(N)=O)c2nc(-c3cccs3)cc(C(F)(F)F)c12 has what CPE inhibition?
Result string: inactive

Query string: Entry C=C(C)C1CC=C(C)/C(=N/NC(=O)c2cccc([N+](=O)[O-])c2)C1 (centres undefined) has what CPE inhibition?
Result string: inactive

Query string: Entry O=S(=O)(NC1CCCCC1Sc1ncccn1)c1ccccc1 (centres undefined) has what CPE inhibition?
Result string: inactive

Query string: Entry CC(C)CC(=O)NC(Nc1ccc([N+](=O)[O-])cc1)C(Cl)(Cl)Cl (centres undefined) has what CPE inhibition?
Result string: 6.29% (inactive)

Query string: Entry Cc1ccc(-c2cc(C(=O)N/N=C/c3ccco3)n[nH]2)s1 has what CPE inhibition?
Result string: inactive

Query string: Entry N#Cc1c(NC(=S)NC(=O)c2ccccc2)sc2c1CCCC2 has what CPE inhibition?
Result string: 1.09% (inactive)
